Listing of recorded CC50 at 72 h by entry.
# test: Cytotoxicity against cat CRFK cells incubated for 72 hrs by CytoTox 96 analysis
# Type: toxicity, cell-based, Felis catus
value kind: CC50 at 72 h

molecule	value kind	data value
CC(C)C[C@H](NC(=O)OC[C@@H]1CCC(=O)N1C[C@H]1C[C@@H]2CC[C@H]1C2)C(=O)N[C@H](C=O)C[C@@H]1CCNC1=O	CC50 at 72 h	> 50 µM
CC(C)C[C@H](NC(=O)OCC1CC(=O)N(Cc2cccc(C(F)(F)F)c2)C1)C(=O)N[C@H](C=O)C[C@@H]1CCNC1=O (stereo partly specified)	CC50 at 72 h	> 50 µM
CC(C)C[C@H](NC(=O)OC[C@@H]1CCC(=O)N1CC1CCCCC1)C(=O)N[C@H](C=O)C[C@@H]1CCNC1=O	CC50 at 72 h	> 50 µM
CC(C)C[C@H](NC(=O)OCC1CCN(C[C@H]2C[C@H]3CC[C@@H]2C3)C1=O)C(=O)N[C@H](C=O)C[C@@H]1CCNC1=O (stereo partly specified)	CC50 at 72 h	> 50 µM
CC(C)C[C@H](NC(=O)OC[C@@H]1CCC(=O)N1CCc1ccccc1)C(=O)N[C@H](C=O)C[C@@H]1CCNC1=O	CC50 at 72 h	> 50 µM
CC(C)C[C@H](NC(=O)OC[C@@H]1CCC(=O)N1Cc1cccc(C(F)(F)F)c1)C(=O)N[C@@H](C[C@@H]1CCNC1=O)C(O)S(=O)(=O)O (stereo partly specified)	CC50 at 72 h	> 50 µM
CC(C)C[C@H](NC(=O)OC[C@@H]1CCC(=O)N1CCC1CCCCC1)C(=O)N[C@@H](C[C@@H]1CCNC1=O)C(O)S(=O)(=O)O (stereo partly specified)	CC50 at 72 h	> 50 µM
CC(C)C[C@H](NC(=O)OC[C@@H]1CCC(=O)N1CC1CCC(F)(F)CC1)C(=O)N[C@H](C=O)C[C@@H]1CCNC1=O	CC50 at 72 h	> 50 µM
CC(C)C[C@H](NC(=O)OC[C@@H]1CCC(=O)N1Cc1ccccc1)C(=O)N[C@H](C=O)C[C@@H]1CCNC1=O	CC50 at 72 h	> 50 µM
CC(C)C[C@H](NC(=O)OC[C@H]1CCC(=O)N1CC1CCCCC1)C(=O)N[C@H](C=O)C[C@@H]1CCNC1=O	CC50 at 72 h	> 50 µM
CC(C)C[C@H](NC(=O)OC[C@@H]1CCC(=O)N1Cc1cccc(Cl)c1)C(=O)N[C@@H](C[C@@H]1CCNC1=O)C(O)S(=O)(=O)O (stereo partly specified)	CC50 at 72 h	> 50 µM

---

# assay target: Replicase polyprotein 1ab (Severe acute respiratory syndrome coronavirus 2, UniProt P0DTD1)
# test: Inhibition of full length N-terminal his6-tagged SARS-CoV-2 3CL protease using FAM-SAVLQ as substrate preincubated with compound for 30 mins followed by substrate addition and measured after 30 mins by FRET assay
pIC50: −log10 of the molar value.
value kind: pIC50

> print(dat)
                                   compound  data.value
1  CC(C)C[C@H](NC(=O)OCC1CCN(Cc2ccccc2)C1=O)C(=O)N[C@@H](C[C@@H]1CCNC1=O)C(O)S(=O)(=O)O (stereo partly drawn)        6.09
2  CC(C)C[C@H](NC(=O)OCC1CCN(Cc2cccc(C(F)(F)F)c2)C1=O)C(=O)N[C@@H](C[C@@H]1CCNC1=O)C(O)S(=O)(=O)O (stereo partly drawn)        6.06
3  CC(C)C[C@H](NC(=O)OC[C@@H]1CCC(=O)N1CCC1CCCCC1)C(=O)N[C@@H](C[C@@H]1CCNC1=O)C(O)S(=O)(=O)O (stereo partly drawn)        6.24
4  CC(C)C[C@H](NC(=O)OC[C@@H]1CCC(=O)N1CC1CCCCC1)C(=O)N[C@H](C=O)C[C@@H]1CCNC1=O        6.60
5  CC(C)C[C@H](NC(=O)OC[C@@H]1CCC(=O)N1Cc1cccc(F)c1)C(=O)N[C@H](C=O)C[C@@H]1CCNC1=O        6.96
6  CC(C)C[C@H](NC(=O)OCC1CC(=O)N(Cc2cccc(C(F)(F)F)c2)C1)C(=O)N[C@@H](C[C@@H]1CCNC1=O)C(O)S(=O)(=O)O (stereo partly drawn)        6.46
7  CC(C)C[C@H](NC(=O)OCC1CC(=O)N(Cc2ccco2)C1)C(=O)N[C@H](C=O)C[C@@H]1CCNC1=O (stereo partly drawn)        6.26
8  CC(C)C[C@H](NC(=O)OCC1CCN(Cc2cccc(C(F)(F)F)c2)C1=O)C(=O)N[C@H](C=O)C[C@@H]1CCNC1=O (stereo partly drawn)        6.07

---

The reader will find reported EC50 values listed item by item below.
# System: SARS-CoV-2
# test: Antiviral activity against SARS CoV-2 Wuhan-Hu-1 infected in HEK293T cells incubated for 24 hrs
# Format: functional, organism-based
# experimental parameters: Severe acute respiratory syndrome coronavirus 2, Wuhan-Hu-1, HEK-293T
value kind: EC50

> print(dat)
                                   molecule  data.value
1  CC(C)C[C@H](NC(=O)OC[C@@H]1CCC(=O)N1Cc1cccc(Cl)c1)C(=O)N[C@@H](C[C@@H]1CCNC1=O)C(O)S(=O)(=O)O (some centres undefined)      120 nM
2  CC(C)C[C@H](NC(=O)OCC1CC(=O)N(CC2CC3CCC2C3)C1)C(=O)N[C@@H](C[C@@H]1CCNC1=O)C(O)S(=O)(=O)O (some centres undefined)       80 nM
3  CC(C)C[C@H](NC(=O)OCC1CC(=O)N(CC2CCCCC2)C1)C(=O)N[C@@H](C[C@@H]1CCNC1=O)C(O)S(=O)(=O)O (some centres undefined)      150 nM
4  CC(C)C[C@H](NC(=O)OCC1CC(=O)N(CC2CC3CCC2C3)C1)C(=O)N[C@H](C=O)C[C@@H]1CCNC1=O (some centres undefined)      120 nM
